Entries and their Tmax values follow.
MEASUREMENT NOTES: Monkey PK study, plasma
Format: in vivo, cynomolgus monkey
STUDY CONDITIONS: male, cynomolgus, cynomolgus monkey, in vivo, po, 300 mg/kg
MEASUREMENT TYPE: Tmax (h)

INSERT INTO assay_data (compound, observed_measurement) VALUES
  ('CNc1nc(N)nc2c1ncn2[C@@H]1O[C@H](CO[P@](=O)(O)N[C@@H](C)C(=O)O)[C@@H](O)[C@@]1(C)F [M1]', 4.67),
  ('CNc1nc(N)nc2c1ncn2[C@@H]1O[C@H](CO)[C@@H](O)[C@@]1(C)F [M4]', 17.3),
  ('C[C@@]1(F)[C@H](O)[C@@H](CO)O[C@H]1n1cnc2c(=O)[nH]c(N)nc21 [AT-273]', 17.3);

---

TEST SYSTEM: HCV NS5B polymerase (RdRp) (Hepatitis C virus genotype 1b, UniProt Q9WMX2)
Construct: HCV NS5B polymerase (RdRp) assay
Sequence (Q9WMX2 2420-3010): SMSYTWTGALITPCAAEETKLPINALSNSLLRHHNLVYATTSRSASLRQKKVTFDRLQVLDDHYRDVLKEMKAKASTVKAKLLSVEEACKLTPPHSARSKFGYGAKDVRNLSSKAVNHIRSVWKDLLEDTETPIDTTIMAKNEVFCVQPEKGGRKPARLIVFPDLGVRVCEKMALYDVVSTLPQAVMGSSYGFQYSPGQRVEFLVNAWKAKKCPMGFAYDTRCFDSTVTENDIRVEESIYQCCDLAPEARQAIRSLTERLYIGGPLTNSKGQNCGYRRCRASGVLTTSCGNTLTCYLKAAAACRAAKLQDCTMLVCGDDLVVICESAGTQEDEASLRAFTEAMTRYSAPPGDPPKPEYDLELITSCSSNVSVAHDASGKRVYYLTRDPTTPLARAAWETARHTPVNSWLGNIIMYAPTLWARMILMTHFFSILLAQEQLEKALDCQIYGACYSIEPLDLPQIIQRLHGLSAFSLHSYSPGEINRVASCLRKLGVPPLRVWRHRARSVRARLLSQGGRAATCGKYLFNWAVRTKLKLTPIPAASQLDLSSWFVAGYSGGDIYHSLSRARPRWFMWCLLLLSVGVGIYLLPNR
MEASUREMENT NOTES: HCV NS5B polymerase (RdRp) assay
Assay type: biochemical
STUDY CONDITIONS: as a competitive inhibitor of ATP; single assay
pIC50: −log10 of the molar value.
MEASUREMENT TYPE: pIC50

INSERT INTO assay_data (smiles_repr, observed_measurement) VALUES
  ('C[C@@]1(F)[C@H](O)[C@@H](COP(=O)(O)OP(=O)(O)OP(=O)(O)O)O[C@H]1n1cnc2c(=O)[nH]c(N)nc21', 4.39);

---

// reported MRT last for each item listed
MEASUREMENT NOTES: Monkey PK study, plasma
Format: in vivo, cynomolgus monkey
STUDY CONDITIONS: male, cynomolgus, cynomolgus monkey, in vivo, po, 100 mg/kg
MEASUREMENT TYPE: MRT last (h)

INSERT INTO results (smiles_repr, observed_measurement) VALUES
  ('C[C@@]1(F)[C@H](O)[C@@H](CO)O[C@H]1n1cnc2c(=O)[nH]c(N)nc21', 23.7),
  ('CNc1nc(N)nc2c1ncn2[C@@H]1O[C@H](CO[P@](=O)(O)N[C@@H](C)C(=O)O)[C@@H](O)[C@@]1(C)F', 7.22),
  ('CNc1nc(N)nc2c1ncn2[C@@H]1O[C@H](CO)[C@@H](O)[C@@]1(C)F', 22.3);

---

MEASUREMENT NOTES: Monkey PK study, plasma
Type: in vivo, cynomolgus monkey
STUDY CONDITIONS: male, cynomolgus, cynomolgus monkey; monkey plasma, single oral AT-527 100 mg/kg; read-out: Cmax
MEASUREMENT TYPE: Cmax (nM)

INSERT INTO results (compound, observed_measurement) VALUES
  ('C[C@@]1(F)[C@H](O)[C@@H](CO)O[C@H]1n1cnc2c(=O)[nH]c(N)nc21 [AT-273]', 440);

---

TEST SYSTEM: UniProtKB P54098
Sequence (P54098 1-1239): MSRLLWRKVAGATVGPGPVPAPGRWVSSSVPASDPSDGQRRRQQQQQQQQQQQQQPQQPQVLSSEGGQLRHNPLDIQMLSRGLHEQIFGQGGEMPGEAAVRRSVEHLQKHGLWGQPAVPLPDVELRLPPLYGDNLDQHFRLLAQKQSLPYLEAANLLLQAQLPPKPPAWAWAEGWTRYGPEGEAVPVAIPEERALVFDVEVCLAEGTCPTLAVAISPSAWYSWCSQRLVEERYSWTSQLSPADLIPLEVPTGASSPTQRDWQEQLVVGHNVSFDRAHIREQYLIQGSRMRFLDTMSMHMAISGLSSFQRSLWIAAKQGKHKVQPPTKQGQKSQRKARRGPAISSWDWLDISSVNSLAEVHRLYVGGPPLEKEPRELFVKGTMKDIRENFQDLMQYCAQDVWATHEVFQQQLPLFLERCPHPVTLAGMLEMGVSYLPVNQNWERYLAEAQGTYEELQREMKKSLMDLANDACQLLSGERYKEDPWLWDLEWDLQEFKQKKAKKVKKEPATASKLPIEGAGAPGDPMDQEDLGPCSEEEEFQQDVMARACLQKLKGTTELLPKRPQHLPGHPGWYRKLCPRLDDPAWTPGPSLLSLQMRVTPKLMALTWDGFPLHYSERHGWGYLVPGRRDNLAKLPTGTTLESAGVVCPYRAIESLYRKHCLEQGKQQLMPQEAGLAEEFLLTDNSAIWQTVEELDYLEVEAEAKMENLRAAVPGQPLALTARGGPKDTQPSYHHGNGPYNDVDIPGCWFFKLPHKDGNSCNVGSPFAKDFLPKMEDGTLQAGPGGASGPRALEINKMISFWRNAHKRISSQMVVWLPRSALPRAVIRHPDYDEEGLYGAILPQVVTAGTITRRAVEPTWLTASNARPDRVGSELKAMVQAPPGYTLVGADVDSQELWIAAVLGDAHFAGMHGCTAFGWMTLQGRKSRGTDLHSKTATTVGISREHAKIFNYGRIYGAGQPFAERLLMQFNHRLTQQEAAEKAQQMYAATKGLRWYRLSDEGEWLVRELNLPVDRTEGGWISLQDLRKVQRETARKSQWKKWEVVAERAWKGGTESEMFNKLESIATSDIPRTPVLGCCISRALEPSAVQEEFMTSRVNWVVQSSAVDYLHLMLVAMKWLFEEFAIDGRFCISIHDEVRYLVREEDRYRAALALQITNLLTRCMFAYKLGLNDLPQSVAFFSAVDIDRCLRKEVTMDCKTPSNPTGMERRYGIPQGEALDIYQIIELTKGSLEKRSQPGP
pIC50: −log10 of the molar value.
Measured pIC50 of individual entries
MEASUREMENT TYPE: pIC50

INSERT INTO measurements (compound, test_system, value_operator, observed_measurement) VALUES
  ('Nc1nc2c(ncn2[C@@H]2O[C@H](COP(=O)(O)OP(=O)(O)OP(=O)(O)O)[C@@H](O)[C@H]2F)c(=O)[nH]1 [2’-fluoro-2’-dGTP, reference compound]', 'UniProtKB P54098', '=', 4.98),
  ('C[C@@]1(F)[C@H](O)[C@@H](COP(=O)(O)OP(=O)(O)OP(=O)(O)O)O[C@H]1n1cnc2c(=O)[nH]c(N)nc21', 'UniProtKB P54098', '<', 4.00);

---

System: Flu A
MEASUREMENT NOTES: Anti-influenza A assay (XTT)
Assay type: cell-based, influenza virus type A
STUDY CONDITIONS: Influenza A virus; Flu A in MDCK cells
pEC50: −log10 of the molar value.
MEASUREMENT TYPE: pEC50

INSERT INTO measurements (smiles_repr, observed_measurement) VALUES
  ('CCOC(=O)C1=C[C@@H](OC(CC)CC)[C@H](NC(C)=O)[C@@H](N)C1', 6.80);

---

MEASUREMENT NOTES: Rat pharmacokinetic study, plasma
Format: in vivo, Sprague-Dawley rat
STUDY CONDITIONS: both sexes, Sprague-Dawley, rat, in vivo, po, 500 mg/kg
Each entry below carries its recorded AUC(0-t).
MEASUREMENT TYPE: AUC(0-t) (µM·h)

INSERT INTO measurements (smiles_repr, measurement_type, observed_measurement) VALUES
  ('CNc1nc(N)nc2c1ncn2[C@@H]1O[C@H](CO)[C@@H](O)[C@@]1(C)F', 'AUC(0-t)', 207),
  ('C[C@@]1(F)[C@H](O)[C@@H](CO)O[C@H]1n1cnc2c(=O)[nH]c(N)nc21', 'AUC(0-t)', 40.3),
  ('CNc1nc(N)nc2c1ncn2[C@@H]1O[C@H](CO[P@](=O)(O)N[C@@H](C)C(=O)O)[C@@H](O)[C@@]1(C)F', 'AUC(0-t)', 77.9);

---

MEASUREMENT NOTES: Monkey PK study, liver and heart tissue levels
Assay type: in vivo, cynomolgus monkey
STUDY CONDITIONS: monkey, AT-527 300 mg/kg oral; footnoted values extrapolated below LLOQ
MEASUREMENT TYPE: Mean Concentration at 4 hr Postdose, Heart (pmol/g)

INSERT INTO results (smiles_repr, units_text, observed_measurement) VALUES
  ('C[C@@]1(F)[C@H](O)[C@@H](COP(=O)(O)O)O[C@H]1n1cnc2c(=O)[nH]c(N)nc21', 'pmol/g', 16.5),
  ('C[C@@]1(F)[C@H](O)[C@@H](CO)O[C@H]1n1cnc2c(=O)[nH]c(N)nc21', 'pmol/g', 444);

---

MEASUREMENT NOTES: Monkey PK study, plasma
Format: in vivo, cynomolgus monkey
STUDY CONDITIONS: male, cynomolgus, cynomolgus monkey; monkey plasma, single oral AT-527 300 mg/kg; read-out: Cmax
MEASUREMENT TYPE: Cmax (nM)

INSERT INTO assay_data (compound, measurement_type, observed_measurement) VALUES
  ('C[C@@]1(F)[C@H](O)[C@@H](CO)O[C@H]1n1cnc2c(=O)[nH]c(N)nc21 [AT-273]', 'Cmax', 310);
